assay: qHTS of TDP-43 Inhibitors; settings: TDP-43 expressing yeast growth rescue, BacTiter-Glo, 24 h; series mostly up to 46.1 µM; further: nearly all actives have a fitted effect of over 50% in size; further: potency means the concentration at half of the fitted maximal effect
About 7,200 (1.8%) of roughly 410,000 compounds were called active. About 7% were inconclusive and are not listed. Many of the other results were omitted from the sample, so actives are more common in it than they were.
observable: Potency

Observe how each entry below is paired with its result.
COc1ccc2c(c1)Cc1sc(NC(=O)c3ccccc3Br)nc1-2    inactive
Cc1cccc(-c2nc(SCc3ccc(Br)cc3)n3[nH]c(=O)cc3n2)c1    inactive
COc1ccc(Cl)cc1NC(=O)CSc1nc(=O)[nH]c2c1CCCC2    inactive
O=C(COc1ccc(Cl)cc1)Nc1ccccc1OCc1cc(=O)n2ccccc2n1    inactive
CC(C)CC(=O)N/C(N)=N/c1nc2ccccc2s1    15.8 µM (active)

// query Provide one value: measured Potency of CC(=O)N1CCc2cc(S(=O)(=O)NC(Cc3ccccc3)C(=O)NCc3ccc(C)cc3)ccc21 (stereo not drawn)
// result inactive

// query Provide one value: measured Potency of Clc1ccc(CSc2nncn3c2cc2occc23)cc1
// result 25.1 µM (active)

// query Provide one value: measured Potency of Cc1cc(C)cc(-n2ccnc2SCC(=O)Nc2nc3ccccc3s2)c1
// result inactive

// query Provide one value: measured Potency of Cc1c(NC(=S)NC(=O)CCc2ccccc2)c(=O)n(-c2ccccc2)n1C
// result inactive

// query Provide one value: measured Potency of COc1ccc(Nc2cc(Cl)ccc2C(=O)O)cn1
// result 10 µM (active)

// query Provide one value: measured Potency of O=C1NC(c2cc3c(cc2Cl)OCO3)Oc2ccccc21 (stereo not drawn)
// result 22.4 µM (active)

// query Provide one value: measured Potency of CN1CCN(C2(CNC(=O)COc3ccc(C(C)(C)C)cc3)CCCCC2)CC1
// result inactive

// query Provide one value: measured Potency of COc1ccc(Cl)cc1NC(=O)c1oc(C)nc1C
// result inactive

// query Provide one value: measured Potency of COc1ccc(C(=O)NC(=S)NNC(=O)CCc2ccccc2)cc1
// result 17.8 µM (active)

----------
Assay: qHTS of TDP-43 Inhibitors; further: nearly all actives have a fitted effect of over 50% in size
Conditions: TDP-43 expressing yeast growth rescue, BacTiter-Glo, 24 h; series mostly up to 46.1 µM
Excerpt: The goal of this project is to identify new chemical probes capable of reversing the toxicity associated with TDP-43 which is associated with frontotemporal lobar degeneration and amyotrophic lateral sclerosis. […] To this end, a miniaturized assay was developed to be screened against the Molecular Libraries Small Molecule Repository (MLSMR) to discover TDP-43 inhibitors. Please note that in the set-up this yeast-based assay compounds that inhibit as TDP-43, have a read-out as activators. […]
In all, about 410,000 compounds went through this assay and about 7,200 (1.8%) were called active. Not shown: some 7% with an inconclusive outcome. Calls come from the whole dose curve; as a rule, active = well fitted activation curve with a large enough effect; inconclusive = small, poorly fitted or top-dose-only effect, or another doubt; inactive = no such curve, though single readings can be large or run the other way. Shown is part of a subset that was picked to be rich in actives.
Could you please pick one outcome from this set? active, inactive

Completed entries (count: 5):
CCCn1c2ccccc2c2cnn(CC(=O)N(CC)c3cc(C)ccc3C)c(=O)c21    inactive
CCOC(=O)c1c(S(=O)(=O)NCC(=O)Nc2ccc(Cl)c(C(F)(F)F)c2)c(C)n(C)c1C    inactive
CCSc1ncc(Cl)c(C(=O)Nc2c(C(=O)c3ccccc3)oc3ccccc23)n1    inactive
CCOc1ccc(N2CC(C)Cn3c2nc2c3c(=O)n(Cc3c(F)cccc3Cl)c(=O)n2C)cc1 (centres undefined)    inactive
O=C(O)c1cc([N+](=O)[O-])c(Nc2cccc3ccccc23)c([N+](=O)[O-])c1    active

Would you kindly look at the next entry?
// query Which outcome was entered for the molecule COc1ccc(-c2noc(CSc3nnc(-c4ccccc4)n3-c3ccc(F)cc3)n2)c(OC)c1 in this test?
// result inactive

----------
Test: qHTS of TDP-43 Inhibitors; further: nearly all actives have a fitted effect of over 50% in size
Conditions: TDP-43 expressing yeast growth rescue, BacTiter-Glo, 24 h; series mostly up to 46.1 µM
Text: The goal of this project is to identify new chemical probes capable of reversing the toxicity associated with TDP-43 which is associated with frontotemporal lobar degeneration and amyotrophic lateral sclerosis. […] To this end, a miniaturized assay was developed to be screened against the Molecular Libraries Small Molecule Repository (MLSMR) to discover TDP-43 inhibitors. Please note that in the set-up this yeast-based assay compounds that inhibit as TDP-43, have a read-out as activators. […]
Out of some 410,000 compounds screened, about 7,200 (1.8%) were called active. Inconclusive results (about 7%) are left out. Calls come from the whole dose curve; as a rule, active = well fitted activation curve with a large enough effect; inconclusive = small, poorly fitted or top-dose-only effect, or another doubt; inactive = no such curve, though single readings can be large or run the other way. This excerpt belongs to a sample that is enriched for actives.
Could you please pick one outcome from this set? active, inactive

Completed entries (count: 4):
COC(=O)N/N=C/c1ccc(-c2ccc(Cl)c(Cl)c2)o1    active
CCN1CCc2nc3sc(C(=O)Nc4ccccc4OC(F)(F)F)c(N)c3cc2C1    inactive
Cc1ccc(/C=N/NC(=O)Cn2ccc(C(F)(F)F)n2)o1    inactive
COC(C[C@H](O)CC(=O)[C@@H](C)OCc1ccccc1)OC    inactive

// query Which outcome was entered for the molecule CC(=O)c1ccc(NC(=O)CCc2nc(-c3ccc(C)cc3)no2)cc1 in this test?
// result inactive

// query Which outcome was entered for the molecule O=C(N/N=C\c1ccc(-c2ccc(Cl)c(Cl)c2)o1)C(=O)N1CCCC1 in this test?
// result inactive

// query Which outcome was entered for the molecule COC(C/C=C/C(=O)[C@@H](C)OCc1ccccc1)OC in this test?
// result active

// query Which outcome was entered for the molecule Cc1cccc(NC(=O)Cn2cc(S(=O)(=O)Cc3ccccc3Cl)c3ccccc32)c1 in this test?
// result inactive

// query Which outcome was entered for the molecule COC(C[C@@H]1O[C@@H]1C(=O)[C@H](C)OCc1ccccc1)OC in this test?
// result inactive

// query Which outcome was entered for the molecule Nc1ccc2c(c1)C(O)c1ccc(Cl)cc1-2 (stereo not given) in this test?
// result active

// query Which outcome was entered for the molecule COc1ccc2ncc3c(-c4ccc(C)c(C)c4)nn(CC(=O)NC4CCCC4)c3c2c1 in this test?
// result inactive

// query Which outcome was entered for the molecule CCS(=O)(=O)c1ncc(N(Cc2ccc(F)cc2)Cc2ccco2)c(C(=O)Nc2cc(C)ccc2C)n1 in this test?
// result inactive

// query Which outcome was entered for the molecule Brc1ccc2c(c1)NC(c1cccnc1)=NC(c1ccccc1)=N2 in this test?
// result active

// query Which outcome was entered for the molecule O=S(=O)(NCCc1ccccc1)c1ccccc1 in this test?
// result inactive

// query Which outcome was entered for the molecule CCN(CCCNC(=O)c1cc2c(=O)n(CC)c3ccccc3c2s1)Cc1ccccc1 in this test?
// result inactive

----------
test: qHTS of TDP-43 Inhibitors; details: TDP-43 expressing yeast growth rescue, BacTiter-Glo, 24 h; series mostly up to 46.1 µM; further: nearly all actives have a fitted effect of over 50% in size
In all, about 410,000 compounds went through this assay and about 7,200 (1.8%) were called active. Not shown: some 7% with an inconclusive outcome. Calls come from the whole dose curve; as a rule, active = well fitted activation curve with a large enough effect; inconclusive = small, poorly fitted or top-dose-only effect, or another doubt; inactive = no such curve, though single readings can be large or run the other way. This excerpt belongs to a sample that is enriched for actives.
Could you please pick one outcome from this set? true = active, false = inactive

CCS(=O)(=O)N1CCc2cc(C(=O)NCc3ccc(C)cc3)ccc21    false

// query Which outcome was entered for the compound CCOC(=O)c1ccc(NC(=O)Cn2c(=O)n(-c3ccc(C)cc3)c(=O)c3c2cnn3C)cc1 in this test?
// result false

// query Which outcome was entered for the compound Cc1ccc(Cn2c(C)c3cnn(CC(=O)NCc4ccccc4)c(=O)c3c2C)cc1 in this test?
// result false

// query Which outcome was entered for the compound COC(=O)c1c(-c2ccc(C)cc2)csc1N in this test?
// result true

// query Which outcome was entered for the compound COc1ccccc1NC(=O)C1=C(C)Nc2nc(SCC(=O)c3ccc(C)cc3)nn2C1c1ccccc1C (stereo not given) in this test?
// result false

// query Which outcome was entered for the compound CCN1CCN(C2CCCCC2NS(=O)(=O)c2ccc(Cl)cc2)CC1 (stereo not given) in this test?
// result false

// query Which outcome was entered for the compound CC(=O)OCC1(O)CC23CCC4c5ccoc5CCC4(C)C2CCC1C3 (stereo not given) in this test?
// result true

// query Which outcome was entered for the compound COC(=O)c1sc(N)c(C(=O)OC)c1COC(=O)CNS(=O)(=O)c1ccc(C)cc1 in this test?
// result false

// query Which outcome was entered for the compound CC(C)OCCCn1c(SCC(=O)c2ccccc2)nc2c(sc3ccccc32)c1=O in this test?
// result false

// query Which outcome was entered for the compound Cc1cccc(NC(=O)N2CCN(C)c3ncccc32)c1C in this test?
// result false

----------
experiment: qHTS of TDP-43 Inhibitors; conditions: TDP-43 expressing yeast growth rescue, BacTiter-Glo, 24 h; series mostly up to 46.1 µM; further: nearly all actives have a fitted effect of over 50% in size
The campaign covered roughly 410,000 compounds. About 7,200 (1.8%) were called active. Inconclusive results (about 7%) are left out. The call rests on the fitted dose curve; in most records, active means well fitted activation curve with a large enough effect; inconclusive means small, poorly fitted or top-dose-only effect, or another doubt; inactive means no such curve, though single readings can be large or run the other way. This excerpt belongs to a sample that is enriched for actives.
Could you please pick one outcome from this set? active, inactive

COc1ccc(C2=NN(C(=O)CSc3nc(=O)n4ccc(C)cc4n3)C(c3ccc(C)cc3)C2)cc1 (stereo not given)    inactive
COc1ccc(-c2cc(-c3nc(-c4cc(OC)c(OC)c(OC)c4)no3)[nH]n2)c(OC)c1    inactive
O=C1C=C(c2ccnc3cc(Cl)ccc23)C[C@@H](c2ccc3c(c2)OCO3)C1    active
O=C(Nc1ccc2c(c1)OCO2)c1sc2cc(Cl)ccc2c1Cl    inactive
CCc1nc(Nc2ccc3nccnc3c2)c2oc3ccccc3c2n1    inactive
COc1ccc(N2CCN(S(=O)(=O)CCNC(=O)C34CC5CC(CC(C5)C3)C4)CC2)cc1    active
COc1ccc(C2=NN(C(C)=O)C(c3ccccc3)C2)cc1 (stereo not given)    active
CCC(=O)N1N=C(c2ccc(OC)cc2)CC1c1cn(-c2ccccc2)nc1-c1cccs1 (stereo not given)    inactive

// query Which outcome was entered for the compound C[C@@H](Nc1nc(-c2ccccc2)nc2c1oc1ccccc12)C(=O)O in this test?
// result inactive

// query Which outcome was entered for the compound COc1ccc(N2CCN(S(=O)(=O)CCNC(=O)C(c3ccccc3)c3ccccc3)CC2)cc1 in this test?
// result inactive
